target_system: KRas G12C (Homo sapiens, UniProt P01116, G12C)
Sequence (P01116 1-188 isoform P01116-2 G12C): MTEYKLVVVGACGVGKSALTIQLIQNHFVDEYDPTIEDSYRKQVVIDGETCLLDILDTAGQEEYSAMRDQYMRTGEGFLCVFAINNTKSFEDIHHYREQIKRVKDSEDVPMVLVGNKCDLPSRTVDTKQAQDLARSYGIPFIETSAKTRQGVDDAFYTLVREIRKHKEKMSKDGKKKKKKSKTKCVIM
protocol_description: KRas G12C Probe Occupancy TR-FRET Assay
Assay type: binding
test_context: 5 min incubation; read-out: IC50
property_label: pIC50
Conceptually, pIC50 converts a concentration in mol/L into minus its log10.

Data request, read-out pIC50, for C=CC(=O)N1CCN(c2ncnc3c(F)c(-c4ccc(F)c5sc(N)nc45)c(Cl)cc23)CC1
7.60

----------
Tested on: Kyse-410
protocol_description: Combination 4 day growth assay (Cell TiterGlo), KYSE-410
Format: cell-based
test_context: Homo sapiens, KYSE-410, 96 h, single treatment, read-out: Absolute IC50
property_label: pIC50
Conceptually, pIC50 converts a concentration in mol/L into minus its log10.

Data request, read-out pIC50, for C#Cc1cccc(Nc2ncnc3cc(OCCOC)c(OCCOC)cc23)c1 [Erlotinib, erlotinib]
6.33

----------
Tested on: LXFA-983L
protocol_description: Combination 4 day growth assay (Cell TiterGlo), LXFA-983L
Type: cell-based
test_context: LXFA 983L, 96 h, single treatment, read-out: Absolute IC50
property_label: pIC50
Conceptually, pIC50 converts a concentration in mol/L into minus its log10.

Data request, read-out pIC50, for C=CC(=O)N1CCN(c2ncnc3c(F)c(-c4ccc(F)c5sc(N)nc45)c(Cl)cc23)CC1
5.59

Data request, read-out pIC50, for C#Cc1cccc(Nc2ncnc3cc(OCCOC)c(OCCOC)cc23)c1
5.55

----------
target_system: KRas G12C (Homo sapiens, UniProt P01116, G12C)
protocol_description: KRas G12C Probe Occupancy TR-FRET Assay
Assay type: binding
test_context: 60 min incubation of inhibitor with KRas G12C; read-out: TR-FRET 60 min
property_label: IC50 (µM)
Kindly answer with a numeric value in µM, unit omitted.

What measured IC50 is associated with C=CC(=O)N1CCN(c2ncnc3c(F)c(-c4cc(O)cc5ccccc45)c(Cl)cc23)CC1 [reference compound] on KRas G12C (Homo sapiens, UniProt P01116, G12C)?
0.0452

What measured IC50 is associated with C=CC(=O)N1CCN(c2ncnc3c(Cl)c(-c4ccc(F)c5sc(N)nc45)c(Cl)cc23)CC1 on KRas G12C (Homo sapiens, UniProt P01116, G12C)?
0.0476

What measured IC50 is associated with C=CC(=O)N1CCN(c2ncnc3c(F)c(-c4c(F)cc(F)c5sc(N)nc45)c(Cl)cc23)CC1 (single isomer, unassigned) [Example 6b] on KRas G12C (Homo sapiens, UniProt P01116, G12C)?
0.449

What measured IC50 is associated with C=CC(=O)N1CCN(c2ncnc3c(F)c(-c4cccc5sc(N)nc45)c(Cl)cc23)CC1 on KRas G12C (Homo sapiens, UniProt P01116, G12C)?
0.0278

What measured IC50 is associated with C=CC(=O)N1CCN(c2ncnc3cc(-c4ccc(F)c5sc(N)nc45)c(Cl)cc23)CC1 on KRas G12C (Homo sapiens, UniProt P01116, G12C)?
0.025

What measured IC50 is associated with C=CC(=O)N1CCN(c2ncnc3c(F)c(-c4cc(F)c(F)c5sc(N)nc45)c(Cl)cc23)CC1 on KRas G12C (Homo sapiens, UniProt P01116, G12C)?
0.0209

What measured IC50 is associated with C=CC(=O)N1CCN(c2ncnc3cc(-c4ccc5oc(N)nc5c4)c(Cl)cc23)CC1 [reference compound] on KRas G12C (Homo sapiens, UniProt P01116, G12C)?
82.2

----------
Tested on: LXFA-983L
protocol_description: CellTiterGlo Cell Proliferation Assay, LXFA-983L
Type: cell-based
test_context: KRas G12C, Lung, 96 hr, read-out: IC50 (μM) in 2 D cell proliferation
property_label: IC50
Please report the result as a number followed by the unit.

Data request, read-out IC50, for C=CC(=O)N1CCN(c2ncnc3c(F)c(-c4ccc(F)c5sc(N)nc45)c(Cl)cc23)CC1 [Example 1]
1.34 µM

----------
target_system: KRas G12C (Homo sapiens, UniProt P01116, G12C)
protocol_description: KRas G12C Probe Occupancy TR-FRET Assay
Assay type: binding
test_context: 60 min incubation; read-out: IC50
property_label: IC50 (µM)
Kindly answer with a numeric value in µM, unit omitted.

Data request, read-out IC50, for C=CC(=O)N1CCN(c2ncnc3c(F)c(-c4ccc(F)c5sc(N)nc45)c(Cl)cc23)CC1
0.024

----------
Please go through the items and note down their IC50.
target_system: constitutive RAS GTPAse activity in H358 cells (Homo sapiens, UniProt P01116, G12C)
Construct: host or cells: H358 human lung cancer cells
Sequence (P01116 1-188 isoform P01116-2 G12C): as above
protocol_description: H358 Cellular Active RAS GTPase ELISA
Assay type: cell-based
test_context: 2 hr, read-out: RAS-GTP
Kindly answer with a numeric value in nM, unit omitted.

Data request, read-out IC50, for C=CC(=O)N1CCN(c2ncnc3c(F)c(-c4c(O)cccc4F)c(Cl)cc23)CC1 [reference compound]
3780

Data request, read-out IC50, for C=CC(=O)N1CCN(c2ncnc3c(F)c(-c4cc(O)cc5ccccc45)c(Cl)cc23)CC1 [reference compound]
392

Data request, read-out IC50, for C=CC(=O)N1CCN(c2ncnc3c(F)c(-c4c(F)cc(F)c5sc(N)nc45)c(Cl)cc23)CC1 (single isomer, unassigned) [Example 6b]
743

Data request, read-out IC50, for C=CC(=O)N1CCN(c2ncnc3c(Cl)c(-c4ccc(F)c5sc(N)nc45)c(Cl)cc23)CC1
148

Data request, read-out IC50, for C=CC(=O)N1CCN(c2ncnc3c(F)c(-c4cc(F)c(F)c5sc(N)nc45)c(Cl)cc23)CC1
166

Data request, read-out IC50, for C=CC(=O)N1CCN(c2ncnc3c(F)c(-c4ccc(F)c5sc(N)nc45)c(Cl)cc23)CC1
37.1

Data request, read-out IC50, for C=CC(=O)N1CCN(c2ncnc3c(F)c(-c4cccc5sc(N)nc45)c(Cl)cc23)CC1
104

Data request, read-out IC50, for C=CC(=O)N1CCN(c2ncnc3cc(-c4ccc(F)c5sc(N)nc45)c(Cl)cc23)CC1
234

Data request, read-out IC50, for C=CC(=O)N1CCN(c2ncnc3c(F)c(-c4c(F)cc(F)c5sc(N)nc45)c(Cl)cc23)CC1 (single isomer, unassigned) [Example 6a]
11.7

----------
System: MIA Paca-2
protocol_description: Combination 4 day growth assay (Cell TiterGlo), MIA Paca-2
Type: cell-based
test_context: Homo sapiens, 96 h, single treatment, read-out: Absolute IC50
property_label: IC50 (nM)
Kindly answer with a numeric value in nM, unit omitted.

Data request, read-out IC50, for CCN1CCN(Cc2ccc(Nc3ncc(F)c(-c4cc(F)c5nc(C)n(C(C)C)c5c4)n3)nc2)CC1 [Abemaciclib, abemaciclib]
755

----------
Test system: SW837
protocol_description: Combination 4 day growth assay (Cell TiterGlo), SW837
Assay type: cell-based
test_context: Homo sapiens, 96 h, single treatment, read-out: Absolute IC50
property_label: pIC50
Conceptually, pIC50 converts a concentration in mol/L into minus its log10.

Data request, read-out pIC50, for CCN1CCN(Cc2ccc(Nc3ncc(F)c(-c4cc(F)c5nc(C)n(C(C)C)c5c4)n3)nc2)CC1
5.44

----------
Tested on: Miapaca-2
protocol_description: CellTiterGlo Cell Proliferation Assay, Miapaca-2
Assay type: cell-based
test_context: Homo sapiens, MIA PaCa-2, KRas G12C, Pancreas, 96 hr, read-out: IC50 (μM) in 2 D cell proliferation
property_label: IC50 (µM)
Kindly answer with a numeric value in µM, unit omitted.

Data request, read-out IC50, for C=CC(=O)N1CCN(c2ncnc3c(F)c(-c4ccc(F)c5sc(N)nc45)c(Cl)cc23)CC1
0.014

----------
Test system: Calu-1
protocol_description: CellTiterGlo Cell Proliferation Assay, Calu-1
Format: cell-based
test_context: Homo sapiens, KRas G12C, Lung, 96 hr, read-out: IC50 (μM) in 3 D spheroid cell proliferation
property_label: IC50
Please report the result as a number followed by the unit.

Data request, read-out IC50, for C=CC(=O)N1CCN(c2ncnc3c(F)c(-c4ccc(F)c5sc(N)nc45)c(Cl)cc23)CC1
0.001 µM

----------
Test system: A427
protocol_description: CellTiterGlo Cell Proliferation Assay, A427
Type: cell-based
test_context: Homo sapiens, A-427, KRas G12D, lung, 96 hr, read-out: IC50 (μM) in 2 D cell proliferation
Protocol: A panel of tumor cell lines harboring KRas G12C or other KRas mutations are collected (Table 6). All cell lines are from ATCC or other sources indicated. Typically cells are cultured in RPMI1640 or Dulbecco's modified Eagle's medium (DMEM, GIBCO) supplemented with 10% FBS (GIBCO, Invitrogen). For 2D culture cells (4×10^3/well) maintained in growth medium described above, are plated onto 96 well tissue culture plates Corning® Cat. 3603) a day before the treatment. […]
property_label: IC50 (µM)
Kindly answer with a numeric value in µM, unit omitted.

Data request, read-out IC50, for C=CC(=O)N1CCN(c2ncnc3c(F)c(-c4ccc(F)c5sc(N)nc45)c(Cl)cc23)CC1
10.1
